Measured values drawn from patent US20230235004A1 for this set.

# subject_of_test: T1, recombinant mouse MAdCAM-1 (mouse, UniProt Q61826 22-364, limits assumed)
# T1 construct: also called mMAdCAM-1
# T1 sequence (looked up): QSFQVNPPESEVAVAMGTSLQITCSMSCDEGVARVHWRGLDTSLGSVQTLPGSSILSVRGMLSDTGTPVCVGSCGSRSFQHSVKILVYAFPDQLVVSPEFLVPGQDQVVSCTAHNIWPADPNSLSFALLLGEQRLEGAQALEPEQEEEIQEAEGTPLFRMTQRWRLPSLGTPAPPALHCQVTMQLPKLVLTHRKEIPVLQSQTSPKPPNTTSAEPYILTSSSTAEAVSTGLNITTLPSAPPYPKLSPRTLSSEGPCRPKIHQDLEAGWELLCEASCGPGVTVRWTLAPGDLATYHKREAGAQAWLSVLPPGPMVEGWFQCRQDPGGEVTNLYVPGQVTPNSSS
# assay_explanation: Octet
experimental_endpoint: binding result

Below are worked cases with known answers.
[[record]]
binder = "MAdCAM Antibody Table 2 clone 17 (antibody, V domains shown, IgG format) VH: QVQLVQSGAEVKKPGSSVKVSCKASGYTFTDYHIHWVRQAPGQGLEWMGGIVPRSGSTTYAQKFQGRVTITADESTSTAYMELSSLRSEDTAVYYCAKDESSGWYYFDYWGQGTLVTVSS VL: DIVMTQSPLSLPVTPGEPASISCRSSQSLLHSNGYNYLDWYLQKPGQSPQLLIYSAYNRASGVPDRFSGSGSGTDFTLKISRVEAEDVGVYYCMQALQTPLTFGQGTKVEIK"
endpoint_value = "no binding"

[[record]]
binder = "MAdCAM Antibody Table 2 clone 14 (antibody, V domains shown, IgG format) VH: QVQLVQSGAEVKKPGSSVKVSCKASGYTFTNYYMHWVRQAPGQGLEWMGGIIPIVDGVKYAQKFQGRVTITADESTSTAYMELSSLRSEDTAVYYCAKGQFTGNYYYGMDYWGQGTLVTVSS VL: DIQMTQSPSSLSASVGDRVTITCQANQDISNYLNWYQQKPGKAPKLLIYRASKLEAGVPSRFSGSGSGTDFTLTISSLQPEDFATYYCQQSSEIPYSFGQGTKVEIK"
endpoint_value = "no binding"

[[record]]
binder = "MAdCAM Antibody Table 2 clone 79 (antibody, V domains shown, IgG format) VH: EVQLLESGGGLVKPGGSLRLSCAASGFTFDDYAMHWVRQAPGKGLEWVASITSSSAFIDYAASVKGRFTISRDDSKNTLYLQMNSLKTEDTAVYYCARERVDWNSYFDLWGRGTLVTVSS VL: EIVMTQSPATLSVSPGERATLSCRASQGISNSYLAWYQQKPGQAPRLLIYGASTRATGIPARFSGSGSGTEFTLTISSLQSEDFAVYYCQQYYTYPPTFGPGTKVDIK"
endpoint_value = "binds"

[[record]]
binder = "MAdCAM Antibody Table 2 clone 11 (antibody, V domains shown, IgG format) VH: EVQLLESGGGLVQPGGSLRLSCAASGFTFSDYYMNWVRQAPGKGLEWVSVIGESGGSTYYADSVKGRFTISRDNSKNTLYLQMNSLRAEDTAVYYCAADPVSRWPKHGGGDYWGQGTLVTVSS VL: DIQMTQSPSSLSASVGDRVTITCRASQGISSSLAWYQQKPGKAPKLLIYAASTLQSGVPSRFSGSGSGTDFTLTISSLQPEDFATYYCQQSYSTPWTFGQGTKVEIK"
endpoint_value = "binds"

[[record]]
binder = "MAdCAM Antibody Table 2 clone 75 (antibody, V domains shown, IgG format) VH: EVQLLESGGGLVQPGGSLRLSCAASGFTFSDFWMHWVRQAPGKGLEWISYISGDSGYTNYADSVKGRFTISRDNSKNTLYLQMNSLRAEDTAVYYCARDRPYYYYMDVWGKGTTVTVSS VL: DIQMTQSPSSLSASVGDRVTITCRASQSVSRSLAWYQQKPGKAPKLLIYAASSLQSGVPSRFSGSGSGTDFTLTISSLQPEDFATYYCQQYKSYPVTFGQGTKVEIK"
endpoint_value = "binds"

[[record]]
binder = "MAdCAM Antibody Table 2 clone 65 (antibody, V domains shown, IgG format) VH: QVQLVQSGAEVKKPGASVKVSCKASGYTFTSYDINWVRQAPGQGLEWMGWMNPNSGNTGYAQKFQGRVTMTRDTSTSTVYMELSSLRSEDTAVYYCAKDSDYSNLLWDYWGQGTLVTVSS VL: DIQMTQSPSSLSASVGDRVTITCRASQDITNDLGWYQQKPGKAPKLLIYQASSLESGVPSRFSGSGSGTDFTLTISSLQPEDFATYYCQQSYTIPLTFGQGTKVEIK"
endpoint_value = "no binding"

[[record]]
binder = "MAdCAM Antibody Table 2 clone 24 (antibody, V domains shown, IgG format) VH: EVQLVESGGGLVKPGGSLRLSCAASGFTFSSYWMSWVRQAPGKGLEWVSRISSDGRITTYAAPVKGRFTISRDDSKNTLYLQMNSLKTEDTAVYYCARGTSYCTGGVCDIDYWGQGTLVTVSS VL: DIQMTQSPSSLSASVGDRVTITCRASQSIGRNLNWYQQKPGKAPKLLIYSASNLQSGVPSRFSGSGSGTDFTLTISSLQPEDFATYYCQQSYSIPLTFGPGTKVDIK"
endpoint_value = "no binding"

[[record]]
binder = "MAdCAM Antibody Table 2 clone 74 (antibody, V domains shown, IgG format) VH: QVQLVQSGAEVKKPGASVKVSCKASGYTFTGYYMHWVRQAPGQGLEWMGIINPSGGNTKYAQKFQGRVTMTRDTSTSTVYMELSSLRSEDTAVYYCTTADYYYYMDVWGKGTTVTVSS VL: DIQMTQSPSSLSASVGDRVTITCRASQGISNYLAWYQQKPGKAPKLLIYAASSLQSGVPSRFSGSGSGTDFTLTISSLQPEDFATYYCQQYYSNADFGQGTKVEIK"
endpoint_value = "no binding"


Problem: Kindly indicate its recorded binding result. Item: MAdCAM Antibody Table 2 clone 22 (antibody, V domains shown, IgG format) VH: EVQLLESGGGLVQPGGSLRLSCAASGFTFDDYAMHWVRQAPGKGLEWVSGISWNSGSIGYADSVKGRFTISRDNSKNTLYLQMNSLRAEDTAVYYCAKDIVAAGHYYYGMDVWGQGTTVTVSS VL: DIQMTQSPSSLSASVGDRVTITCQASQDISNYLNWYQQKPGKAPKLLIYDASNLETGVPSRFSGSGSGTDFTLTISSLQPEDFATYYCQQSYSTPLTFGGGTKVEIK
Solution: no binding

Problem: Kindly indicate its recorded binding result. Item: MAdCAM Antibody Table 2 clone 23 (antibody, V domains shown, IgG format) VH: EVQLLESGGGLVQPGGSLRLSCAASGFTFDDYAMHWVRQAPGKGLEWVSYIDTSSSHLYYADSVKGRFTISRDNSKNTLYLQMNSLRAEDTAVYYCARDEAAAGYYGMDVWGQGTTVTVSS VL: DIQMTQSPSSLSASVGDRVTITCQAGQDISNYLNWYQQKPGKAPKLLIYDASNLETGVPSRFSGSGSGTDFTLTISSLQPEDFATYYCQQTYSTPITFGQGTKLEIK
Solution: no binding
